So I've got a bunch of molecules here, and I need their CL free values.
# Tested on: Liver
# Experimental protocol: Unbound intrinsic clearance in human liver microsomes
# Format: ADME, microsome
// note: answer is a bare numeric in mL/min/kg

Let me check: CCS(=O)(=O)c1ccc2c(c1)-c1cn(C)c(=O)cc1OCCCCc1ccccc1O2 , system Liver, measured CL free is 130

Let me check: CCOc1cc(=O)n(C)cc1-c1cc(NS(=O)(=O)CC)ccc1Oc1ccc(OC(F)(F)F)cc1 , system Liver, measured CL free is 95

Let me check: CCS(=O)(=O)c1ccc2c(c1)-c1cn(C)c(=O)cc1OCCc1ccccc1O2 , system Liver, measured CL free is 100

---

# System: Mus musculus
# Experimental protocol: Unbound AUC in mouse at 1 mg/kg, po
# Type: ADME, organism-based
# Settings: in vivo
Endpoint name: fAUC (ng·h/mL)
// note: answer is a bare numeric in ng·h/mL

Let me check: Cn1cc2c(cc1=O)OCCCCc1cc(Cl)ccc1Oc1ncc(CS(C)(=O)=O)cc1-2 , system Mus musculus, measured fAUC is 85

Let me check: Cn1cc2c(cc1=O)OCCCCc1cc(Cl)ccc1Oc1ccc(CS(C)(=O)=O)cc1-2 , system Mus musculus, measured fAUC is 29

Let me check: CCS(=O)(=O)Nc1cnc2c(c1)-c1cn(C)c(=O)cc1OCCCCc1cc(F)cc(F)c1O2 , system Mus musculus, measured fAUC is 15

Let me check: CCS(=O)(=O)c1ccc2c(c1)-c1cn(C)c(=O)cc1OCCCCc1cc(Cl)ccc1O2 , system Mus musculus, measured fAUC is 41

Let me check: CCS(=O)(=O)Nc1ccc2c(c1)-c1cn(C)c(=O)cc1OCCCCc1cc(Cl)ccc1O2 , system Mus musculus, measured fAUC is 16

Let me check: CCS(=O)(=O)Nc1cnc2c(c1)-c1cn(C)c(=O)cc1OCCCCc1cc(Cl)ccc1O2 , system Mus musculus, measured fAUC is 120

Let me check: CCS(=O)(=O)Nc1ccc2c(c1)-c1cn(C)c(=O)cc1OCCCCc1cc(F)cc(F)c1O2 , system Mus musculus, measured fAUC is 8

Let me check: CCS(=O)(=O)c1cnc2c(c1)-c1cn(C)c(=O)cc1OCCCCc1cc(Cl)ccc1O2 , system Mus musculus, measured fAUC is 100

---

So I've got a bunch of compounds here, and I need their Papp values.
# Experimental protocol: Permeability of the compound by PAMPA
# Type: physicochemical
# Settings: read-out: permeability
// note: answer is a bare numeric in ×10⁻⁶ cm/s

Data point: CCS(=O)(=O)c1cnc2c(c1)-c1cn(C)c(=O)cc1OCCCCc1cc(Cl)ccc1O2 ; Papp = 15

Data point: CCS(=O)(=O)c1ccc2c(c1)-c1cn(C)c(=O)cc1OCCCCc1cc(Cl)ccc1O2 ; Papp = 7.6

Data point: CCS(=O)(=O)Nc1cnc2c(c1)-c1cn(C)c(=O)cc1OCCCCc1cc(F)cc(F)c1O2 ; Papp = 9

Data point: CCS(=O)(=O)Nc1cnc2c(c1)-c1cn(C)c(=O)cc1OCCCCc1cc(Cl)ccc1O2 ; Papp = 7.2

Data point: CCS(=O)(=O)Nc1ccc2c(c1)-c1cn(C)c(=O)cc1OCCCCCc1cc(Cl)ccc1O2 ; Papp = 0.89

Data point: Cn1cc2c(cc1=O)OCCCCc1cc(Cl)ccc1Oc1ncc(CS(C)(=O)=O)cc1-2 ; Papp = 12

Data point: Cn1cc2c(cc1=O)OCCCCc1cc(Cl)ccc1Oc1ccc(CS(C)(=O)=O)cc1-2 ; Papp = 9.2

Data point: CCS(=O)(=O)Nc1ccc2c(c1)-c1cn(C)c(=O)cc1OCCCCc1cc(F)cc(F)c1O2 ; Papp = 6.8

Data point: CCS(=O)(=O)Nc1ccc2c(c1)-c1cn(C)c(=O)cc1OCCCCc1cc(Cl)ccc1O2 ; Papp = 2.2

---

# Measurement target: Bromodomain-containing protein 4 (Homo sapiens, UniProt O60885)
# Experimental protocol: Inhibition of BRD4 in human NCI-H1299 cells after 24 hrs by Bright-Glo luciferase reporter gene assay
Range-based classes on measured EC50: low class (below 40 nM), middle class (40 nM to below 400 nM), high class (400 nM or more)

Please classify: COc1cc(=O)n(C)nc1-c1cc(NC(C)=O)ccc1Oc1ccccc1
middle class

Please classify: CCOC(=O)Nc1ccc(Oc2ccccc2)c(-c2nn(C)c(=O)cc2OC)c1
high class

Please classify: CCS(=O)(=O)Nc1ccc2c(c1)-c1cn(C)c(=O)cc1OCCCCCc1cc(Cl)ccc1O2
low class

Please classify: CCS(=O)(=O)Nc1ccc(Oc2ccc(F)cc2F)c(-c2cn(C)c(=O)cc2OCC(C)(C)O)c1
high class

Please classify: CCOc1cc(=O)n(C)cc1-c1cc(NS(=O)(=O)CC)ccc1Oc1ccc(C#N)cc1
middle class

Please classify: COc1cc(=O)n(C)cc1-c1ccccc1Oc1ccccc1
high class

Please classify: CCS(=O)(=O)c1cnc2c(c1)-c1cn(C)c(=O)cc1OCCCCc1cc(Cl)ccc1O2
low class

Please classify: CCS(=O)(=O)Nc1ccc(Oc2ccc(F)cc2F)c(-c2cn(C)c(=O)cc2OCCN2CCOCC2)c1
high class

Please classify: Cn1cc2c(cc1=O)OCCCCc1cc(Cl)ccc1Oc1ccc(CS(C)(=O)=O)cc1-2
low class

Please classify: CCS(=O)(=O)c1ccc2c(c1)-c1cn(C)c(=O)cc1OCCCCc1ccccc1O2
low class

Please classify: CCOc1cc(=O)n(C)cc1-c1cc(NS(=O)(=O)CC)ccc1Oc1ccc(F)cc1
middle class

Please classify: CCNC(=O)Nc1ccc(Oc2ccccc2)c(-c2nn(C)c(=O)cc2OC)c1
high class

Please classify: CCOc1cc(=O)n(C)cc1-c1cc(NS(=O)(=O)CC)ccc1Oc1ccc(OC(F)(F)F)cc1
middle class

Please classify: CCS(=O)(=O)Nc1ccc2c(c1)-c1cn(C)c(=O)cc1OCCCCc1cc(Cl)ccc1O2
low class

Please classify: CCS(=O)(=O)Nc1ccc(Oc2ccc(F)cc2F)c(-c2cn(C)c(=O)cc2OC2COC2)c1
middle class

Please classify: COc1cc(=O)n(C)nc1-c1cc(N)ccc1Oc1ccccc1
high class

Please classify: CCS(=O)(=O)c1ccc2c(c1)-c1cn(C)c(=O)cc1OCCCc1ccccc1O2
low class

Please classify: CCOc1cc(=O)n(C)cc1-c1cc(NS(=O)(=O)CC)cnc1Oc1ccc(F)cc1F
middle class

---

# Test system: Liver
# Experimental protocol: Unbound intrinsic clearance in rat liver microsomes
# Format: ADME, microsome
So I've got a bunch of compounds here, and I need their log10(CL free) values.
Response schema: value (number) is log10 of CL free in units of mL/min/kg.

Let me check: CCS(=O)(=O)Nc1ccc(Oc2ccc(F)cc2F)c(-c2cn(C)c(=O)cc2OC)c1 , system Liver, measured log10(CL free) is 2.40

Let me check: CCOc1cc(=O)n(C)cc1-c1cc(NS(=O)(=O)CC)ccc1Oc1ccc(F)cc1F , system Liver, measured log10(CL free) is 1.78

Let me check: CCOc1cc(=O)n(C)cc1-c1cc(NS(=O)(=O)CC)ccc1Oc1ccc(OC(F)(F)F)cc1 , system Liver, measured log10(CL free) is 3.48

Let me check: CCS(=O)(=O)c1cnc2c(c1)-c1cn(C)c(=O)cc1OCCCCc1cc(Cl)ccc1O2 , system Liver, measured log10(CL free) is 1.87

Let me check: Cn1cc2c(cc1=O)OCCCCc1cc(Cl)ccc1Oc1ccc(CS(C)(=O)=O)cc1-2 , system Liver, measured log10(CL free) is 2.50

Let me check: CCOc1cc(=O)n(C)cc1-c1cc(NS(=O)(=O)CC)ccc1Oc1ccccc1 , system Liver, measured log10(CL free) is 3.48

Let me check: Cn1cc2c(cc1=O)OCCCCc1cc(Cl)ccc1Oc1ncc(CS(C)(=O)=O)cc1-2 , system Liver, measured log10(CL free) is 2.03

Let me check: CCS(=O)(=O)c1ccc2c(c1)-c1cn(C)c(=O)cc1OCCCCc1cc(Cl)ccc1O2 , system Liver, measured log10(CL free) is 2.85

Let me check: CCS(=O)(=O)Nc1ccc2c(c1)-c1cn(C)c(=O)cc1OCCCCc1cc(Cl)ccc1O2 , system Liver, measured log10(CL free) is 2.64

---

# Experimental protocol: Fraction unbound in mouse plasma at 1 uM after 4 hrs by LC-MS/MS analysis
# Type: ADME, cell-free
So I've got a bunch of compounds here, and I need their fraction unbound at 4 h, 1 µM values.

Data point: CCS(=O)(=O)Nc1ccc2c(c1)-c1cn(C)c(=O)cc1OCCCCc1cc(Cl)ccc1O2 ; fraction unbound at 4 h, 1 µM = 0.01

Data point: CCS(=O)(=O)Nc1ccc2c(c1)-c1cn(C)c(=O)cc1OCCCCc1cc(F)cc(F)c1O2 ; fraction unbound at 4 h, 1 µM = 0.03

Data point: CCOc1cc(=O)n(C)cc1-c1cc(NS(=O)(=O)CC)ccc1Oc1ccc(F)cc1F ; fraction unbound at 4 h, 1 µM = 0.1

Data point: Cn1cc2c(cc1=O)OCCCCc1cc(Cl)ccc1Oc1ncc(CS(C)(=O)=O)cc1-2 ; fraction unbound at 4 h, 1 µM = 0.12

Data point: CCS(=O)(=O)Nc1cnc2c(c1)-c1cn(C)c(=O)cc1OCCCCc1cc(F)cc(F)c1O2 ; fraction unbound at 4 h, 1 µM = 0.12

Data point: CCS(=O)(=O)c1cnc2c(c1)-c1cn(C)c(=O)cc1OCCCCc1cc(Cl)ccc1O2 ; fraction unbound at 4 h, 1 µM = 0.04

Data point: CCS(=O)(=O)Nc1ccc(Oc2ccc(F)cc2F)c(-c2cn(C)c(=O)cc2OC2COC2)c1 ; fraction unbound at 4 h, 1 µM = 0.2

Data point: CCOc1cc(=O)n(C)cc1-c1cc(S(=O)(=O)CC)ccc1Oc1ccc(F)cc1F ; fraction unbound at 4 h, 1 µM = 0.1

Data point: CCS(=O)(=O)Nc1cnc2c(c1)-c1cn(C)c(=O)cc1OCCCCc1cc(Cl)ccc1O2 ; fraction unbound at 4 h, 1 µM = 0.06

Data point: CCS(=O)(=O)c1ccc2c(c1)-c1cn(C)c(=O)cc1OCCCCc1cc(Cl)ccc1O2 ; fraction unbound at 4 h, 1 µM = 0.04

Data point: CCS(=O)(=O)Nc1ccc(Oc2ccc(F)cc2F)c(-c2cn(C)c(=O)cc2OC)c1 ; fraction unbound at 4 h, 1 µM = 0.14

Data point: Cn1cc2c(cc1=O)OCCCCc1cc(Cl)ccc1Oc1ccc(CS(C)(=O)=O)cc1-2 ; fraction unbound at 4 h, 1 µM = 0.03
